What inhibition was measured for each of the following?
# test_description: blockers of RIG-like receptor reporter activation – cell-based, Sendai virus stimulus, luciferase, 10K MLSCN set, TLR/RLR signaling modifier project, primary screen (AID 602276);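 also: firefly luciferase from ISG56 promoter only with Renilla not read in this screen; 0% = Sendai virus plus DMSO and 100% = medium plus DMSO without virus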
# applied_conditions: HEK293 RL24 IRF3 luciferase reporter, at 10 µM, hits give high values
One number for each entry, in %.

[
  {
    "compound": "O=C(Cc1cccs1)Nc1ccccc1C(=O)O",
    "result_unit": "%",
    "inhibition": -8.52
  },
  {
    "compound": "COc1cccc(C(=O)Nc2cnc(NC(=O)c3ccco3)cc2C)c1",
    "result_unit": "%",
    "inhibition": 5.68
  },
  {
    "compound": "Cc1ccc(CNC(=O)C2CCCN(S(=O)(=O)c3cccnc3)C2)cc1 (stereo not drawn)",
    "result_unit": "%",
    "inhibition": -3.78
  },
  {
    "compound": "CCC(=O)c1ccc(OCC(=O)N2CCc3cc(OC)c(OC)cc3C2)cc1",
    "result_unit": "%",
    "inhibition": 3.27
  },
  {
    "compound": "Cc1ccc(-c2nn3c(=O)c(C)nnc3s2)cc1",
    "result_unit": "%",
    "inhibition": -12.3
  },
  {
    "compound": "Cc1ccc(-c2cc(C(=O)N3CCCC3)no2)cc1",
    "result_unit": "%",
    "inhibition": -46.7
  }
]

Give inhibition for each listed item.
1. O=C(Cn1nc(C(F)(F)F)c2c1CCCC2)NCCN1CCOCC1
2. Cc1cc(-c2ccccc2)c2c3c(cn2n1)c(=O)n(C)c(=O)n3C
3. CCOC(=O)C1=C(C)NC(=O)C(C#N)C1c1ccco1 (stereo not drawn)

Response given:
[17.5, 17.8, 15.7]

Give inhibition for each listed item.
1. Cc1cc(NC(=O)c2cnn3cccnc23)no1
2. CCCn1c(N2CCN(CC(=O)NCc3cccs3)CC2)nc2ccccc21
3. CC[C@H]1CN2CCc3cc(OC)c(OC)cc3[C@@H]2C[C@@H]1C[C@H]1NCCc2cc(OC)c(OC)cc21
4. CS(=O)(=O)Nc1ccc(C(=O)NCc2ccc3c(c2)OCO3)cc1
5. O=C(O)COc1ccc2occ(C(=O)c3ccccc3)c2c1
6. CCCN1C(=O)SC(CC(=O)Nc2ccc(Br)cc2)C1=O (stereo not drawn)
7. COc1ccc(/C(O)=C2/C(=O)C(=O)N(CC3CCCO3)C2c2cccc(OC)c2)cc1 (stereo not drawn)
8. Cc1ccc(-c2nc(-c3cccnc3)no2)c(C)c1

Response given:
[-57.6, 21.5, -28.7, 9.26, 10.3, -2.25, 14.7, -33.6]

----------
# test_description: endothelial E-selectin expression blockers – imaging, HUVEC, immunofluorescence, MLSMR starter and 10KST1 sets, primary screen (AID 487);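 also: signal is fraction of cell area covered by stained E-selectin grains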
# applied_conditions: HUVEC TNFalpha-induced E-selectin immunofluorescence imaging, at 2 µM; hits give high values
measure: inhibition (%)
Give bare numbers, in %.

For orientation, consider the following solved cases.
[
  {
    "molecule": "C=CCN1C(=O)/C(=C2\\SC(N3CCOCC3)=NC2=O)c2cc(Br)ccc21",
    "result_unit": "%",
    "numeric_readout": -76
  },
  {
    "molecule": "O=C(c1ccccc1)c1ccc2nc[nH]c2c1",
    "result_unit": "%",
    "numeric_readout": -48.9
  }
]

Give inhibition for each listed item.
1. O=C(Nc1ccc(Cl)cc1C(=O)Nc1ccncc1)c1ccco1
2. Cc1cc(NC(=O)CSc2ccc(Cl)cc2)no1
3. CCOc1ccccc1CN1C(=O)c2ccccc2C1C(=O)NCC1CCCO1 (stereo unspecified)
4. Cc1cc(-c2ccccc2)nc2cc(C(N)=O)nn12
5. COc1ccc(C2C(=O)N(C3CCCCC3)CC(=O)N2Cc2ccco2)cc1 (stereo unspecified)
6. O=C(NCCN1CCN(c2ccccc2)CC1)c1ccc(NC(=O)C2CCCO2)cc1 (stereo unspecified)
7. CCOc1ccccc1N1C(=O)CC(Sc2ncccc2C(=O)O)C1=O (stereo unspecified)

Response given:
1. -148
2. -83.4
3. -214
4. -129
5. -26.6
6. -135
7. -111

Give inhibition for each listed item.
1. Cc1ccc(CNC(=O)CCCn2c(=O)c3ccccc3n(CC(=O)NCc3ccco3)c2=O)cc1
2. CCN(CC)C(=O)CSc1nc2ccc(NC(=O)CSc3nccn3C)cc2s1

Response given:
[-76.5, 19.3]
